The following compounds are listed with their measured 48 h IGC50 (-log10 mol/L) values.
# System: Tetrahymena pyriformis
# protocol-summary: 48 h IGC50 (-log10 mol/L); higher = more toxic
measure: 48 h IGC50 (-log10 mol/L)

- C=Cc1ccccc1: 2.98
- CCC#CC(O)CC (stereo unspecified): 2.97
- COC(=O)CCCBr: 3.07
- CCC(C)(O)c1ccccc1 (stereo unspecified): 3.06
- COC(=O)c1cccc(O)c1: 2.95
- CC(CCO)c1ccccc1 (stereo unspecified): 3.01

====

# System: Tetrahymena pyriformis
# protocol-summary: 48 h IGC50 (-log10 mol/L); higher = more toxic
measure: 48 h IGC50 (-log10 mol/L)

- COC(=O)CCBr: 4.03
- CC(Br)C(N)=O (stereo unspecified): 3
- O=C(c1ccc(O)cc1O)c1ccc(O)cc1O: 3.96
- c1cnc2c(c1)ccc1ncccc12: 4.07
- CCCCOC(=O)c1ccccc1: 3.92
- CCOC(=O)C(C(=O)OCC)=C(C)C: 2.93

====

# Test system: Pimephales promelas
# protocol-summary: 96 h LC50 (-log10 mol/L); higher = more toxic
96 h LC50 (-log10 mol/L) vs 4: at or above is TRUE, below is FALSE.

* CN(C)c1ccccn1 | FALSE
* CCCCOCCOC(=O)C(C)Oc1cc(Cl)c(Cl)cc1Cl (configuration not stated) | TRUE
* Cc1c([N+](=O)[O-])ccc(N)c1[N+](=O)[O-] | TRUE
* O=C(O)CCCOc1ccc(Cl)cc1Cl | TRUE
* COC(C)=O | FALSE
* CC(C)Oc1cccc(NC(=O)c2ccccc2C(F)(F)F)c1 | TRUE
